Each recorded value in this set is attributed to patent US20260248787A9.

- Assay Summary: Phase 1/2 clinical study, plasma pharmacokinetic evaluation
- Format: in vivo, human
- Assay Setup: human, plasma, oral, 120 mg, 120 mg BID Arm A, C1D1, N=6, mean; read-out: t1/2 (converted)
Quantity Kind: half-life (h)
Write it as a number; the unit h goes unstated.

Prompt: // query half-life value for entry C=C1C[C@@H]2CC[C@H]1[C@@H](C(=O)N1CCC3(CC1)CN(c1ncncc1Oc1ccc(F)cc1C(=O)N(C(C)C)C(C)C)C3)N2
Completion: 2.87

###

- Assay Summary: Phase 1/2 clinical study, plasma pharmacokinetic evaluation
- Type: in vivo, human
- Assay Setup: human, plasma, oral, 60 mg, Table 15 cut-off; 60 mg BID Arm B, Cycle 2 Day 1, N=4, mean
Quantity Kind: AUC(0-t)
Please give the number followed by its unit.

Prompt: // query AUC(0-t) value for entry C=C1C[C@@H]2CC[C@H]1[C@@H](C(=O)N1CCC3(CC1)CN(c1ncncc1Oc1ccc(F)cc1C(=O)N(C(C)C)C(C)C)C3)N2
Completion: 2690 ng·h/mL

###

- Assay Summary: Phase 1/2 clinical study, plasma pharmacokinetic evaluation
- Assay type: in vivo, human
- Assay Setup: human, plasma, oral, 100 mg, Cycle 1 Day 1; 100 mg BID Arm A (without azole); N=2; mean
Quantity Kind: AUC(0-t) (ng·h/mL)
Write it as a number; the unit ng·h/mL goes unstated.

Prompt: // query AUC(0-t) value for entry C=C1C[C@@H]2CC[C@H]1[C@@H](C(=O)N1CCC3(CC1)CN(c1ncncc1Oc1ccc(F)cc1C(=O)N(C(C)C)C(C)C)C3)N2 [the present compound]
Completion: 4940

###

- Assay Summary: Phase 1/2 clinical study, plasma pharmacokinetic evaluation
- Format: in vivo, human
- Assay Setup: human, plasma, oral, 120 mg, 120 mg BID Arm A, C1D1, N=6, mean
- Procedure: In the present test of the present compound, PK samples have been collected in up to 24 patients dosed in dose groups of 40, 80, 100, and 120 mg BID Arm A, and in dose groups of 40 and 60 mg BID Arm B (Table 6). Large preliminary PK inter-patient variability was observed. (1) In the present study, PK samples have been collected in up to 42 patients dosed in dose groups of 40, 80, 100, 120, 140 and 200 mg BID Arm A, and in dose groups of 40, 60, 100, and 200 mg BID Arm B (Table 15). […]
Quantity Kind: Tmax (h)
Write it as a number; the unit h goes unstated.

Prompt: // query Tmax value for entry C=C1C[C@@H]2CC[C@H]1[C@@H](C(=O)N1CCC3(CC1)CN(c1ncncc1Oc1ccc(F)cc1C(=O)N(C(C)C)C(C)C)C3)N2 [the present compound]
Completion: 1.25

###

- Assay Summary: Phase 1/2 clinical study, plasma pharmacokinetic evaluation
- Type: in vivo, human
- Assay Setup: human, plasma, oral, post dose, Arms A and B, first cut-off
Quantity Kind: Tmax

Prompt: // query Tmax value for entry C=C1C[C@@H]2CC[C@H]1[C@@H](C(=O)N1CCC3(CC1)CN(c1ncncc1Oc1ccc(F)cc1C(=O)N(C(C)C)C(C)C)C3)N2
Completion: ≤ 2 h

###

- Assay Summary: Phase 1/2 clinical study, plasma pharmacokinetic evaluation
- Format: in vivo, human
- Assay Setup: human, plasma, oral, 300 mg, Cycle 2 Day 1; 300 mg BID Arm A (without azole); N=3; mean
Quantity Kind: Cmax (ng/mL)
Write it as a number; the unit ng/mL goes unstated.

Prompt: // query Cmax value for entry C=C1C[C@@H]2CC[C@H]1[C@@H](C(=O)N1CCC3(CC1)CN(c1ncncc1Oc1ccc(F)cc1C(=O)N(C(C)C)C(C)C)C3)N2 [the present compound]
Completion: 3060

###

- Assay Summary: Phase 1/2 clinical study, plasma pharmacokinetic evaluation
- Type: in vivo, human
- Assay Setup: human, plasma, oral, 80 mg, Table 15 cut-off; 80 mg BID Arm A, Cycle 2 Day 1, N=2, mean
Quantity Kind: AUC(0-t) (ng·h/mL)
Write it as a number; the unit ng·h/mL goes unstated.

Prompt: // query AUC(0-t) value for entry C=C1C[C@@H]2CC[C@H]1[C@@H](C(=O)N1CCC3(CC1)CN(c1ncncc1Oc1ccc(F)cc1C(=O)N(C(C)C)C(C)C)C3)N2 [the present compound]
Completion: 2900

###

- Assay Summary: Phase 1/2 clinical study, plasma pharmacokinetic evaluation
- Format: in vivo, human
- Assay Setup: human, plasma, oral, 300 mg, Cycle 2 Day 1; 300 mg BID Arm B (with azole); N=1 (one patient pending re-assay)
Quantity Kind: Cmax (ng/mL)
Write it as a number; the unit ng/mL goes unstated.

Prompt: // query Cmax value for entry C=C1C[C@@H]2CC[C@H]1[C@@H](C(=O)N1CCC3(CC1)CN(c1ncncc1Oc1ccc(F)cc1C(=O)N(C(C)C)C(C)C)C3)N2
Completion: 4210

###

- Assay Summary: Phase 1/2 clinical study, plasma pharmacokinetic evaluation
- Type: in vivo, human
- Assay Setup: human, plasma, oral, 60 mg, Cycle 2 Day 1; 60 mg BID Arm B (with azole); N=4; mean
Quantity Kind: Cmax (ng/mL)
Write it as a number; the unit ng/mL goes unstated.

Prompt: // query Cmax value for entry C=C1C[C@@H]2CC[C@H]1[C@@H](C(=O)N1CCC3(CC1)CN(c1ncncc1Oc1ccc(F)cc1C(=O)N(C(C)C)C(C)C)C3)N2
Completion: 751

###

- Assay Summary: Phase 1/2 clinical study, plasma pharmacokinetic evaluation
- Type: in vivo, human
- Assay Setup: human, plasma, oral, 200 mg, Cycle 1 Day 1; 200 mg BID Arm B (with azole); N=11; mean
Quantity Kind: AUC(0-t)
Please give the number followed by its unit.

Prompt: // query AUC(0-t) value for entry C=C1C[C@@H]2CC[C@H]1[C@@H](C(=O)N1CCC3(CC1)CN(c1ncncc1Oc1ccc(F)cc1C(=O)N(C(C)C)C(C)C)C3)N2 [the present compound]
Completion: 21200 ng·h/mL

###

- Assay Summary: Phase 1/2 clinical study, plasma pharmacokinetic evaluation
- Type: in vivo, human
- Assay Setup: human, plasma, oral, 120 mg, Cycle 1 Day 1; 120 mg BID Arm A (without azole); N=6; mean
Quantity Kind: Cmax (ng/mL)
Write it as a number; the unit ng/mL goes unstated.

Prompt: // query Cmax value for entry C=C1C[C@@H]2CC[C@H]1[C@@H](C(=O)N1CCC3(CC1)CN(c1ncncc1Oc1ccc(F)cc1C(=O)N(C(C)C)C(C)C)C3)N2 [the present compound]
Completion: 2320

###

- Assay Summary: Phase 1/2 clinical study, plasma pharmacokinetic evaluation
- Assay type: in vivo, human
- Assay Setup: human, plasma, oral, 200 mg, 200 mg BID Arm B, Cycle 2 Day 1, N=2, mean
Quantity Kind: Cmax (ng/mL)
Write it as a number; the unit ng/mL goes unstated.

Prompt: // query Cmax value for entry C=C1C[C@@H]2CC[C@H]1[C@@H](C(=O)N1CCC3(CC1)CN(c1ncncc1Oc1ccc(F)cc1C(=O)N(C(C)C)C(C)C)C3)N2
Completion: 4360

###

- Assay Summary: Phase 1/2 clinical study, plasma pharmacokinetic evaluation
- Format: in vivo, human
- Assay Setup: human, plasma, oral, 40 mg, Table 15 cut-off; 40 mg BID Arm B, Cycle 2 Day 1, N=2, mean
Quantity Kind: Cmax (ng/mL)
Write it as a number; the unit ng/mL goes unstated.

Prompt: // query Cmax value for entry C=C1C[C@@H]2CC[C@H]1[C@@H](C(=O)N1CCC3(CC1)CN(c1ncncc1Oc1ccc(F)cc1C(=O)N(C(C)C)C(C)C)C3)N2
Completion: 987

###

- Assay Summary: Phase 1/2 clinical study, plasma pharmacokinetic evaluation
- Format: in vivo, human
- Assay Setup: human, plasma, oral, 60 mg, 60 mg BID Arm B, C1D1, N=6, mean
Quantity Kind: Tmax (h)
Write it as a number; the unit h goes unstated.

Prompt: // query Tmax value for entry C=C1C[C@@H]2CC[C@H]1[C@@H](C(=O)N1CCC3(CC1)CN(c1ncncc1Oc1ccc(F)cc1C(=O)N(C(C)C)C(C)C)C3)N2 [the present compound]
Completion: 1.08

###

- Assay Summary: Phase 1/2 clinical study, plasma pharmacokinetic evaluation
- Format: in vivo, human
- Assay Setup: human, plasma, oral, 40 mg, Table 15 cut-off; 40 mg BID Arm B, Cycle 2 Day 1, N=2, mean
Quantity Kind: AUC(0-t) (ng·h/mL)
Write it as a number; the unit ng·h/mL goes unstated.

Prompt: // query AUC(0-t) value for entry C=C1C[C@@H]2CC[C@H]1[C@@H](C(=O)N1CCC3(CC1)CN(c1ncncc1Oc1ccc(F)cc1C(=O)N(C(C)C)C(C)C)C3)N2 [the present compound]
Completion: 5330

###

- Assay Summary: Phase 1/2 clinical study, plasma pharmacokinetic evaluation
- Assay type: in vivo, human
- Assay Setup: human, plasma, oral, 140 mg, Cycle 2 Day 1; 140 mg BID Arm B (with azole); N=1
Quantity Kind: AUC(0-t)

Prompt: // query AUC(0-t) value for entry C=C1C[C@@H]2CC[C@H]1[C@@H](C(=O)N1CCC3(CC1)CN(c1ncncc1Oc1ccc(F)cc1C(=O)N(C(C)C)C(C)C)C3)N2
Completion: 5520 ng·h/mL
